Cited source for all entries: ChEMBL document CHEMBL4387740

test: Intrinsic clearance in rat liver microsomes; type: ADME, Microsome; conditions: read-out: CLH
Please respond with reported microsomal CLint for every item in the list.

Your task in this section: give microsomal CLint for each listed record.
1. O=C(Nc1ccccc1)C(=O)C(Cc1ccccc1)NC(=O)[C@H]1CCC(=O)N1Cc1ccccc1 (stereo partly specified)
2. NC(=O)C(=O)C(Cc1ccccc1)NC(=O)[C@H]1CCC(=O)N1Cc1ccccc1 (mixture of isomers)
3. O=C(NC1CCC1)C(=O)C(Cc1ccccc1)NC(=O)[C@H]1CCC(=O)N1Cc1ccccc1 (stereo partly specified)
4. CCNC(=O)C(=O)C(Cc1ccccc1)NC(=O)[C@H]1CCC(=O)N1Cc1ccccc1 (mixture of isomers)
5. O=C(NC1CC1)C(=O)C(Cc1ccccc1)NC(=O)[C@H]1CCC(=O)N1Cc1ccccc1 (stereo partly specified)
6. O=C(NCc1ccc(F)cc1)C(=O)C(Cc1ccccc1)NC(=O)[C@H]1CCC(=O)N1Cc1ccccc1 (stereo partly specified)

// result
1. > 100 µL/min/mg
2. < 23 µL/min/mg
3. > 100 µL/min/mg
4. < 23 µL/min/mg
5. < 23 µL/min/mg
6. > 100 µL/min/mg
